Target: T1, GST-ZO-1 PDZ domain 2 (Rattus norvegicus (Rat)), A0A0G2
T1 chain: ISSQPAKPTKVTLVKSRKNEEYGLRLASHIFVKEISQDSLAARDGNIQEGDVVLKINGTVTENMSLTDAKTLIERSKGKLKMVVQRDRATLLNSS
Experiment: G assay titration, PDZ 5 ug/ml
Recorded endpoint: Kd (nM)
Give bare numbers, in nM.

Any idea what its Kd is? The binder is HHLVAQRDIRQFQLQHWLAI (modifications not checked) [noradrenaline transporter]
400
